target: human serum albumin (HSA) (Homo sapiens); assay: Isothermal titration calorimetry (ITC) of binding of catechins and analogs to HSA; design: purchased Sigma-Aldrich Japan (Tokyo, Japan); conditions: Table 2, methylated catechin derivatives; ITC, 298 K, 50 mM sodium phosphate pH 6.8
Listed compounds paired with reported N (number of binding sites)
Please reply with the number alone, leaving off any unit.

COc1c(O)cc([C@H]2Oc3cc(O)cc(O)c3C[C@H]2OC(=O)c2cc(O)c(O)c(O)c2)cc1O; 0.9
COc1cc([C@H]2Oc3cc(O)cc(O)c3C[C@H]2OC(=O)c2cc(O)c(O)c(O)c2)cc(O)c1O; 0.9
O=C(O[C@@H]1Cc2c(O)cc(O)cc2O[C@@H]1c1cc(O)c(O)c(O)c1)c1cc(O)c(O)c(O)c1 [EGCg, (−)-epigallocatechin gallate]; 1.1
COc1cc(C(=O)O[C@@H]2Cc3c(O)cc(O)cc3O[C@@H]2c2cc(O)c(O)c(O)c2)cc(O)c1O; 1.0

Problem: Fill in the blank: the reported N (number of binding sites) of COc1c(O)cc(C(=O)O[C@@H]2Cc3c(O)cc(O)cc3O[C@@H]2c2cc(O)c(O)c(O)c2)cc1O is ____.
Solution: 1.0

----------
biological target: human serum albumin (HSA) (Homo sapiens, UniProt P02768); assay: Isothermal titration calorimetry (ITC) of binding of catechins and analogs to HSA; design: purchased Sigma-Aldrich Japan (Tokyo, Japan); conditions: Table 1; ITC, 298 K, 50 mM sodium phosphate pH 6.8
Sequence (P02768 25-609): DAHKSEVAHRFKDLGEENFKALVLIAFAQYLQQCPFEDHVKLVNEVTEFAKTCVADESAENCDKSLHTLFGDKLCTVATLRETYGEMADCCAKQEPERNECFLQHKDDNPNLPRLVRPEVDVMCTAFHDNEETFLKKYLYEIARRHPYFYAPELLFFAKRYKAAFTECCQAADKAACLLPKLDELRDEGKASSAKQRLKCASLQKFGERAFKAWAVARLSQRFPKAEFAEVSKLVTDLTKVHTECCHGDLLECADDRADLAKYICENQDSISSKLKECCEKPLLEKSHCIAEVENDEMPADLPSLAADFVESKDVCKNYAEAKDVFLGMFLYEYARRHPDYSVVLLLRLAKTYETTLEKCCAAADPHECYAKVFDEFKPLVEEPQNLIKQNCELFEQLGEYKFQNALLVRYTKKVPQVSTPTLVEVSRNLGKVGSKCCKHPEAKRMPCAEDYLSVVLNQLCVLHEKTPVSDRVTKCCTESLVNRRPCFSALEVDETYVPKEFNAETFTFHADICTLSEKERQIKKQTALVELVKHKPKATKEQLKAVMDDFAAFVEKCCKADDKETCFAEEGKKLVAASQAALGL
Classify as follows. Reported −TΔS greater than or equal to -5 kcal/mol: satisfied. Reported −TΔS below: not satisfied.

# count of solved cases: 2
O=C(O[C@@H]1Cc2c(O)cc(O)cc2O[C@@H]1c1ccc(O)c(O)c1)c1cc(O)c(O)c(O)c1 [ECg, (−)-epicatechin gallate]; satisfied
Oc1cc(O)c2c(c1)O[C@H](c1cc(O)c(O)c(O)c1)[C@H](O)C2 [EGC, (−)-epigallocatechin]; not satisfied

Problem: Check the entry Oc1cc(O)c2c(c1)O[C@@H](c1ccc(O)c(O)c1)[C@H](O)C2 [C, (+)-catechin] : does −TΔS equal or exceed -5 kcal/mol?
Solution: not satisfied

Problem: Check the entry CCOC(=O)c1cc(O)c(O)c(O)c1 [EtGa, Ethyl gallate] : does −TΔS equal or exceed -5 kcal/mol?
Solution: satisfied

Problem: Check the entry Oc1cc(O)c2c(c1)O[C@@H](c1cc(O)c(O)c(O)c1)[C@H](O)C2 [GC, (−)-gallocatechin] : does −TΔS equal or exceed -5 kcal/mol?
Solution: satisfied

Problem: Check the entry O=C(O[C@@H]1Cc2c(O)cc(O)cc2O[C@H]1c1ccc(O)c(O)c1)c1cc(O)c(O)c(O)c1 [Cg, (−)-catechin gallate] : does −TΔS equal or exceed -5 kcal/mol?
Solution: satisfied

Problem: Check the entry O=C(O[C@@H]1Cc2c(O)cc(O)cc2O[C@@H]1c1cc(O)c(O)c(O)c1)c1cc(O)c(O)c(O)c1 [EGCg, (−)-epigallocatechin gallate] : does −TΔS equal or exceed -5 kcal/mol?
Solution: satisfied

Problem: Check the entry O=C(O[C@@H]1Cc2c(O)cc(O)cc2O[C@H]1c1cc(O)c(O)c(O)c1)c1cc(O)c(O)c(O)c1 [GCg, (−)-gallocatechin gallate] : does −TΔS equal or exceed -5 kcal/mol?
Solution: satisfied

----------
Listed compounds paired with reported ΔG
target: human serum albumin (HSA) (Homo sapiens, UniProt P02768); assay: Isothermal titration calorimetry (ITC) of binding of catechins and analogs to HSA; parameters: purchased Sigma-Aldrich Japan (Tokyo, Japan); details: Table 2, methylated catechin derivatives; ITC, 298 K
Hi, when you answer, please include the unit after the number. Thanks!

Solved entries (count: 2):
O=C(O[C@@H]1Cc2c(O)cc(O)cc2O[C@@H]1c1cc(O)c(O)c(O)c1)c1cc(O)c(O)c(O)c1 [EGCg, (−)-epigallocatechin gallate]; -7.7 ± 0.1 kcal/mol
COc1c(O)cc(C(=O)O[C@@H]2Cc3c(O)cc(O)cc3O[C@@H]2c2cc(O)c(O)c(O)c2)cc1O [EGCg-4′′-O-Me]; -8.2 ± 0.1 kcal/mol

Problem: Fill in the blank: the reported ΔG of COc1c(O)cc([C@H]2Oc3cc(O)cc(O)c3C[C@H]2OC(=O)c2cc(O)c(O)c(O)c2)cc1O [EGCg-4′-O-Me] is ____.
Solution: -7.9 ± 0.1 kcal/mol

Problem: Fill in the blank: the reported ΔG of COc1cc(C(=O)O[C@@H]2Cc3c(O)cc(O)cc3O[C@@H]2c2cc(O)c(O)c(O)c2)cc(O)c1O [EGCg-3′′-O-Me] is ____.
Solution: -9.4 ± 0.1 kcal/mol

Problem: Fill in the blank: the reported ΔG of COc1cc([C@H]2Oc3cc(O)cc(O)c3C[C@H]2OC(=O)c2cc(O)c(O)c(O)c2)cc(O)c1O [EGCg-3′-O-Me] is ____.
Solution: -7.9 ± 0.1 kcal/mol

----------
target: human serum albumin (HSA) (Homo sapiens); assay: Isothermal titration calorimetry (ITC) of binding of catechins and analogs to HSA; design: purchased Sigma-Aldrich Japan (Tokyo, Japan); conditions: Table 1; ITC, 298 K, 50 mM sodium phosphate pH 6.8, HSA 50 μM, single-binding-site model
Listed compounds paired with reported N (number of binding sites)
Please reply with the number alone, leaving off any unit.

Solved entries (count: 3):
Oc1cc(O)c2c(c1)O[C@H](c1cc(O)c(O)c(O)c1)[C@H](O)C2 [EGC, (−)-epigallocatechin]; 1.0
O=C(O[C@@H]1Cc2c(O)cc(O)cc2O[C@H]1c1ccc(O)c(O)c1)c1cc(O)c(O)c(O)c1 [Cg, (−)-catechin gallate]; 1.0
O=C(O[C@@H]1Cc2c(O)cc(O)cc2O[C@@H]1c1ccc(O)c(O)c1)c1cc(O)c(O)c(O)c1 [ECg, (−)-epicatechin gallate]; 1.0

Moving on to the next compound.
Problem: Fill in the blank: the reported N (number of binding sites) of O=C(O[C@@H]1Cc2c(O)cc(O)cc2O[C@@H]1c1cc(O)c(O)c(O)c1)c1cc(O)c(O)c(O)c1 [EGCg, (−)-epigallocatechin gallate] is ____.
Solution: 1.1

----------
target: human serum albumin (HSA) (Homo sapiens); test: Differential scanning calorimetry (DSC), thermal stability of HSA–ligand complexes; settings: human, pH 6.8
Listed compounds paired with reported ΔTm at 500 µM
Enter your answer as a number in °C; do not include the unit.

Oc1cc(O)c2c(c1)O[C@H](c1cc(O)c(O)c(O)c1)[C@H](O)C2 [EGC, (−)-epigallocatechin]; 0.2

Moving on to the next compound.
Problem: Fill in the blank: the reported ΔTm at 500 µM of Oc1cc(O)c2c(c1)O[C@@H](c1cc(O)c(O)c(O)c1)[C@H](O)C2 [GC, (−)-gallocatechin] is ____.
Solution: 0.7

----------
Listed compounds paired with reported Kd
target: human serum albumin (HSA) (Homo sapiens); assay: Isothermal titration calorimetry (ITC) of binding of catechins and analogs to HSA; parameters: purchased Sigma-Aldrich Japan (Tokyo, Japan); conditions: Table 2, methylated catechin derivatives; ITC, 298 K, 50 mM sodium phosphate pH 6.8; read-out: KD
Enter your answer as a number in µM; do not include the unit.

Solved entries (count: 4):
COc1c(O)cc(C(=O)O[C@@H]2Cc3c(O)cc(O)cc3O[C@@H]2c2cc(O)c(O)c(O)c2)cc1O; 1
COc1c(O)cc([C@H]2Oc3cc(O)cc(O)c3C[C@H]2OC(=O)c2cc(O)c(O)c(O)c2)cc1O; 1.7
COc1cc(C(=O)O[C@@H]2Cc3c(O)cc(O)cc3O[C@@H]2c2cc(O)c(O)c(O)c2)cc(O)c1O; 0.14
O=C(O[C@@H]1Cc2c(O)cc(O)cc2O[C@@H]1c1cc(O)c(O)c(O)c1)c1cc(O)c(O)c(O)c1 [EGCg, (−)-epigallocatechin gallate]; 2.2

Moving on to the next compound.
Problem: Fill in the blank: the reported Kd of COc1cc([C@H]2Oc3cc(O)cc(O)c3C[C@H]2OC(=O)c2cc(O)c(O)c(O)c2)cc(O)c1O is ____.
Solution: 1.6

----------
target: human serum albumin (HSA) (Homo sapiens, UniProt P02768); assay: Isothermal titration calorimetry (ITC) of binding of catechins and analogs to HSA; parameters: purchased Sigma-Aldrich Japan (Tokyo, Japan); conditions: Table 1; ITC, 298 K, 50 mM sodium phosphate pH 6.8; read-out: KD
endpoint: Kd (µM)
Enter your answer as a number in µM; do not include the unit.

Solved entries (count: 3):
O=C(O[C@@H]1Cc2c(O)cc(O)cc2O[C@@H]1c1cc(O)c(O)c(O)c1)c1cc(O)c(O)c(O)c1 [EGCg, (−)-epigallocatechin gallate]; 2.2
Oc1cc(O)c2c(c1)O[C@@H](c1ccc(O)c(O)c1)[C@H](O)C2 [C, (+)-catechin]; 5
O=C(O[C@@H]1Cc2c(O)cc(O)cc2O[C@H]1c1cc(O)c(O)c(O)c1)c1cc(O)c(O)c(O)c1 [GCg, (−)-gallocatechin gallate]; 8.8

Problem: Can you look up Kd on human serum albumin (HSA) (Homo sapiens, UniProt P02768) for O=C(O[C@@H]1Cc2c(O)cc(O)cc2O[C@H]1c1ccc(O)c(O)c1)c1cc(O)c(O)c(O)c1 [Cg, (−)-catechin gallate] ?
Solution: 3.5

Problem: Can you look up Kd on human serum albumin (HSA) (Homo sapiens, UniProt P02768) for CCOC(=O)c1cc(O)c(O)c(O)c1 [EtGa, Ethyl gallate] ?
Solution: 46

Problem: Can you look up Kd on human serum albumin (HSA) (Homo sapiens, UniProt P02768) for O=C(O[C@@H]1Cc2c(O)cc(O)cc2O[C@@H]1c1ccc(O)c(O)c1)c1cc(O)c(O)c(O)c1 [ECg, (−)-epicatechin gallate] ?
Solution: 1.1

Problem: Can you look up Kd on human serum albumin (HSA) (Homo sapiens, UniProt P02768) for Oc1cc(O)c2c(c1)O[C@H](c1ccc(O)c(O)c1)[C@H](O)C2 [EC, (−)-epicatechin] ?
Solution: 49
